Value source: the COVID Moonshot data (paper PMC7615835)

Reported IC50 for target or system SARS-CoV-2 Main Protease (SARS-CoV-2), by entry.
Property Name: IC50

Compound	Experimental Target	Reported Measurement
O=C(Nc1ccc(Cl)cc1)[C@@H](c1ccccc1)N1Cc2ccccc2C1=O (stereo in doubt)	SARS-CoV-2 Main Protease (SARS-CoV-2)	> 99.5 µM
C=CC(=O)N(c1cc(C(C)(C)C)on1)C(C(=O)NCCc1cccc(F)c1)c1cncc(C#N)c1 (stereo not drawn)	SARS-CoV-2 Main Protease (SARS-CoV-2)	> 99.5 µM
COc1cc(OC)nc(C#N)n1	SARS-CoV-2 Main Protease (SARS-CoV-2)	> 99.5 µM

###

Experimental Target: UniProt:P0DTD1
For each record, check the reported IC50: if it is below 2 µM write rule met, else write rule not met.

Molecule	Experimental Target	Group Label
O=[N+]([O-])c1cnc(Sc2nnc(-c3ccc(Cl)cc3)o2)s1	UniProt:P0DTD1	rule met
CS(=O)(=O)N1CCc2ccc(CN3CCN(C(=O)CCl)CC3)cc2C1	UniProt:P0DTD1	rule not met
O=S(=O)(Cc1ccccc1F)c1oc(-c2ccc(F)cc2)nc1S(=O)(=O)c1ccccc1	UniProt:P0DTD1	rule met
O=C(Nc1cncc2ccccc12)C1CN(S(=O)(=O)N2CCCC2CO)Cc2ccc(Cl)cc21 (stereo not given)	UniProt:P0DTD1	rule met
Nc1ccccc1-c1nc2ccccc2n1-c1cc(Cl)cc(CC(=O)Nc2cncc3ccccc23)c1	UniProt:P0DTD1	rule not met
CN(C)c1ccc(N(Cc2cscn2)C(=O)Cn2nnc3ccccc32)cc1	UniProt:P0DTD1	rule not met
CN(CC#N)S(=O)(=O)N1Cc2ccc(Cl)cc2C2(CCN(c3cncc4ccccc34)C2=O)C1 (stereo not given)	UniProt:P0DTD1	rule met
CC1CN(CCO)CCN1C(=O)CC1(C(=O)Nc2cncc3ccccc23)CCOc2ccc(Cl)cc21 (stereo not given)	UniProt:P0DTD1	rule not met
Cn1cccc(C(C(=O)NCCc2cccc(F)c2)N(C(=O)c2cocn2)c2ccc(C(C)(C)C)cc2)c1=O (stereo not given)	UniProt:P0DTD1	rule not met
O=C(CCl)N1CCCN(S(=O)(=O)Cc2ccccc2)CC1	UniProt:P0DTD1	rule not met
CC(C)(C)c1ccc(N(C(=O)c2sc(N3CCOCC3)nc2Cl)C(C(=O)NCCc2cccc(F)c2)c2cccnc2)cc1 (stereo not given)	UniProt:P0DTD1	rule not met
CN(C)C(=O)CN1CCc2ccc(Cl)cc2C1C(=O)Nc1cncc2ccccc12 (stereo not given)	UniProt:P0DTD1	rule met
CS(=O)(=O)Nc1ccc2cncc(NC(=O)C3CCS(=O)(=O)c4ccc(Cl)cc43)c2c1 (stereo not given)	UniProt:P0DTD1	rule met
Cc1ccncc1NC(=O)Cc1cc(Cl)cc(OC2COC2)c1	UniProt:P0DTD1	rule not met

###

Reported IC50 for target or system SARS-CoV-2 Main Protease (SARS-CoV-2), by entry.

Compound	Comparison Operator	IC50 / nM
O=C(NCCc1cccc(F)c1)C(c1cccnc1)N(C(=O)c1cocn1)C1CCc2ccccc21 (stereo not given)	>	99500
N#CC1(CS(=O)(=O)N2Cc3ccc(Cl)cc3C3(CCN(c4cncc5c4CCCC5)C3=O)C2)CC1 (stereo not given)	=	515
COc1cc2nc(Cl)nc(Nc3cc(Cl)cc(CC(=O)Nc4cncc5ccccc45)c3)c2cc1OC	=	2360
COc1cc(CNc2cc(Cl)cc(CC(=O)Nc3cncc4ccccc34)c2)cc(OC)c1	=	2870
CNC(=O)C(C)(C)N1CC(C(=O)Nc2cncc3ccccc23)c2cc(Cl)ccc2C1=O (stereo not given)	=	1020
